Provide the reported TGI of each item.
test system: SNB-75 CNS; assay: NCI tumour cell line growth inhibition, 48 h

Dear colleague, could you please provide TGI for the compounds listed below?
1. C=C(C)CC1=C(OCC)C(OC)(OCC)C1=O (stereo unspecified)
2. C[C@@H](CO)OCOCc1ccccc1
3. Cn1ncc2c(/N=C/c3cccs3)[nH]c(=S)nc21
4. NCCNc1nc(N2CCCC2)c2nc(Cl)c(NCc3ccccc3)nc2n1

> 100 µM
> 100 µM
> 100 µM
3.49 µM

Quick one: give me TGI for each item below, same order please.
1. COC(=O)N/N=C(/CCN1CCCC1)CC(c1ccccc1)c1c(O)c2ccccc2oc1=O (stereo unspecified)
2. COC(=O)C(C(=O)C(=O)NC1=C(Cl)C(=O)c2ccccc2C1=O)c1csc(-n2nc(-c3ccccc3)cc2-c2ccccc2)n1 (stereo unspecified)
3. CCCCCC(O)[C@H]1C(=O)C[C@@H](O[Si](C)(C)C(C)(C)C)[C@@H]1/C=C/CCOCc1ccccc1 (stereo partly specified)
4. [O-][N+](CCO)(CCO)c1ncnc2nc[nH]c12
5. O=C(O)c1ccc2c(c1Nc1ccccc1)C(=O)c1ccccc1C2=O
6. CCOc1ccccc1N=Nc1c(-c2ccccc2)nn(C(=O)CC(=O)Nc2cccc(Cl)c2)c1-c1ccccc1
7. CN(/N=C/c1cccs1)c1ccc(Cl)cc1[N+](=O)[O-]
8. N#CC1=C(S)N(C2OC(CO)C(O)C(O)C2O)C(c2ccccc2)=CC1c1ccccc1 (stereo unspecified)

1: > 100 µM; 2: 9.4 µM; 3: 32.1 µM; 4: > 100 µM; 5: > 100 µM; 6: > 100 µM; 7: > 100 µM; 8: > 100 µM

Batch request: TGI for each of the following compounds.
1. COc1ccc(/C=C2\CN(Cc3cn(CCCNc4ccnc5cc(Cl)ccc45)nn3)C/C(=C\c3ccc(OC)c(OC)c3)C2=O)cc1OC
2. O=C(c1cccc(OCc2ccccc2)c1OCc1ccccc1)N1CCSC1=S
3. Cc1cc(O)c(C(C)C)cc1CN1CCCCC1
4. C=CC1ON(C)CCc2cc(OC)c(OC)cc21 (stereo unspecified)

["6.09 µM", "34.2 µM", "> 100 µM", "> 100 µM"]
